// data source = patent US20250361322A1

molecular target: human Tissue Factor (hTF) (human, UniProt P13726 33-295); experiment: cell-based or functional assay
TEST READOUT: IC50, cell viability of A431 cells, Primary ADC, Continuous (FIG. 20A) (nM)
Field format: number, assumed nM, no unit text.

[ask] Please list IC50, cell viability of A431 cells, Primary ADC, Continuous (FIG. 20A) recorded for the binder anti-TF antibody 25G1 conjugated to MC-vc-PAB-MMAE (antibody, IgG1, V domains shown, MC-vc-PAB-MMAE on cysteines of the partially reduced antibody (chain and positions not stated), DAR 3-4, Antibody-drug conjugate (primary ADC) of the IgG1 antibody; also called 25G1 ADC) VH: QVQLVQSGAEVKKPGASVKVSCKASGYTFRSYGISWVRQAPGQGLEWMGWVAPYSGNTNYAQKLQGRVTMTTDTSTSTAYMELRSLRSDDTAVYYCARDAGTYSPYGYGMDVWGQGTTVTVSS VL: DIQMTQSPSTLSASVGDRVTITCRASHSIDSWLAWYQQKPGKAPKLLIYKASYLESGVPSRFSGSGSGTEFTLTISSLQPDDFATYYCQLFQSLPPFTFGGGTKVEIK
[reply] 0.06

[ask] Report measured IC50, cell viability of A431 cells, Primary ADC, Continuous (FIG. 20A); entry is 25A3-vc-MMAE (antibody, IgG1, V domains shown, MC-vc-PAB-MMAE on cysteines of the partially reduced antibody (chain and positions not stated), DAR 3-4, Antibody-drug conjugate (primary ADC) of the IgG1 antibody; also called 25A3 ADC; 25A3 MMAE ADC) VH: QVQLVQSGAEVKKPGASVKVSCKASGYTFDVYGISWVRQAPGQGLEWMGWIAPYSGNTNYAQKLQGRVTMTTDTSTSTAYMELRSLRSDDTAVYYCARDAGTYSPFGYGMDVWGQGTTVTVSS VL: DIQMTQSPSTLSASVGDRVTITCQASQSINNWLAWYQQKPGKAPKLLIYKAYNLESGVPSRFSGSGSGTEFTLTISSLQPDDFATYYCQLFQSLPPFTFGGGTKVEIK
[reply] 0.07

[ask] Given 43Ea-vc-MMAE (antibody, IgG1, V domains shown, MC-vc-PAB-MMAE on cysteines of the partially reduced antibody (chain and positions not stated), DAR 3-4) VH: QVQLQESGPGLVKPSQTLSLTCTVSGGSISSGQYWSWIRQHPGKGLEWIGEIYYSGSTRYNPSLKSRVTISVDTSKNQFSLKLSSVTAADTAVYYCARDTPYYYDGGYYYYMDVWGKGTTVTVSS VL: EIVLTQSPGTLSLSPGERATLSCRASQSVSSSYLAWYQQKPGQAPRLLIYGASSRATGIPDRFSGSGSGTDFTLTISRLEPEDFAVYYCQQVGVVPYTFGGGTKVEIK , respond with its IC50, cell viability of A431 cells, Primary ADC, Continuous (FIG. 20A).
[reply] 0.09

[ask] Name the recorded IC50, cell viability of A431 cells, Primary ADC, Continuous (FIG. 20A) of the binder listed here: anti-TF antibody 54E conjugated to MC-vc-PAB-MMAE (antibody, IgG1, V domains shown, MC-vc-PAB-MMAE on cysteines of the partially reduced antibody (chain and positions not stated), DAR 3-4, Antibody-drug conjugate (primary ADC) of the IgG1 antibody; also called 54E ADC) VH: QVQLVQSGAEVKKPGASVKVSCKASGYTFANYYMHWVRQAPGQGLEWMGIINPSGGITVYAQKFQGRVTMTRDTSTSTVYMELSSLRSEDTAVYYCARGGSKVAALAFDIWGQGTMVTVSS VL: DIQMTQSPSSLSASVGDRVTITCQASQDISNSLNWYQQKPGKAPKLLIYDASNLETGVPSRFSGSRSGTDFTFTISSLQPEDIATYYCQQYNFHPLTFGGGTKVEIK
[reply] 0.07

[ask] Report IC50, cell viability of A431 cells, Primary ADC, Continuous (FIG. 20A), nothing else, for this binder: anti-TF antibody 39A conjugated to MC-vc-PAB-MMAE (antibody, IgG1, V domains shown, MC-vc-PAB-MMAE on cysteines of the partially reduced antibody (chain and positions not stated), DAR 3-4, Antibody-drug conjugate (primary ADC) of the IgG1 antibody; also called 39A ADC) VH: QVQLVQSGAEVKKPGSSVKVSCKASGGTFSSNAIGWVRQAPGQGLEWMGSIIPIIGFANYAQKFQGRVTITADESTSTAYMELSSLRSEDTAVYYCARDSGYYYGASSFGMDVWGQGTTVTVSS VL: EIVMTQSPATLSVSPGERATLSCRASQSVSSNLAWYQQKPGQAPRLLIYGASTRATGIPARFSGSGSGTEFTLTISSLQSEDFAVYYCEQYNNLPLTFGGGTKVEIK
[reply] 0.05

[ask] Specify measured IC50, cell viability of A431 cells, Primary ADC, Continuous (FIG. 20A) for anti-TF antibody 43B1 conjugated to MC-vc-PAB-MMAE (antibody, IgG1, V domains shown, MC-vc-PAB-MMAE on cysteines of the partially reduced antibody (chain and positions not stated), DAR 3-4) VH: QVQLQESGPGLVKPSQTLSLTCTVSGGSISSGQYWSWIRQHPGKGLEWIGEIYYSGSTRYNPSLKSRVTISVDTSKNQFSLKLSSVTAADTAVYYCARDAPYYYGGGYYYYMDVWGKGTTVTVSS VL: EIVLTQSPGTLSLSPGERATLSCRASESVDSSYLAWYQQKPGQAPRLLIYGASTRQTGIPDRFSGSGSGTDFTLTISRLEPEDFAVYYCQQAGVVPYTFGGGTKVEIK .
[reply] 0.08
